conditions: in methanol, 318.15 K
attribute_measured: solubility (mole fraction)
# respond with the number and nothing more

[in] Return solubility (mole fraction) for the following compound: NC(=O)CC[C@H](N)C(=O)O
[out] 0.000286

----------
conditions: in sec-butanol, 318.15 K
attribute_measured: solubility (mole fraction)
Please give the numeric answer without any surrounding text.

[in] Provide measured solubility (mole fraction) value, entry: NC(=O)CC[C@H](N)C(=O)O
[out] 0.000501

----------
details: in 2-butanone, 313.15 K
attribute_measured: solubility (mole fraction)
Just the number.

[in] Answer with reported solubility (mole fraction) of NC(=O)CC[C@H](N)C(=O)O
[out] 0.000338

----------
conditions: in ethyl acetate, 303.15 K
attribute_measured: solubility (mole fraction)
I only need the number, thanks.

[in] Give the value of solubility (mole fraction) reported for the following: NC(=O)CC[C@H](N)C(=O)O
[out] 0.000293

----------
settings: in ethanol, 293.15 K
attribute_measured: solubility (mole fraction)
# print the numeric value only

[in] For NC(=O)CC[C@H](N)C(=O)O , write its solubility (mole fraction).
[out] 0.000337

----------
details: in isobutanol, 283.15 K
attribute_measured: solubility (mole fraction)
Answer with a number only.

[in] State its solubility (mole fraction): NC(=O)CC[C@H](N)C(=O)O
[out] 5.11e-05

----------
conditions: in n-propanol, 298.15 K
attribute_measured: solubility (mole fraction)
Lab note: record just the number, no unit beside it.

[in] Name the recorded solubility (mole fraction) of the compound listed here: NC(=O)CC[C@H](N)C(=O)O
[out] 0.000189

----------
details: in 2-butanone, 303.15 K
attribute_measured: solubility (mole fraction)
No unit in the answer, only the number.

[in] // fetch solubility (mole fraction) given entry NC(=O)CC[C@H](N)C(=O)O
[out] 0.000271

----------
settings: in ethyl acetate, 313.15 K
attribute_measured: solubility (mole fraction)
Answer with a number only.

[in] Determine its reported solubility (mole fraction): NC(=O)CC[C@H](N)C(=O)O
[out] 0.000452

----------
conditions: in n-butanol, 288.15 K
attribute_measured: solubility (mole fraction)
API note: the answer field is a bare number with no unit suffix.

[in] Please give the documented solubility (mole fraction) of NC(=O)CC[C@H](N)C(=O)O
[out] 0.00023

----------
conditions: in n-hexane, 308.15 K
attribute_measured: solubility (mole fraction)
// no unit, no text: just the number

[in] Output measured solubility (mole fraction) for this item: NC(=O)CC[C@H](N)C(=O)O
[out] 0.000494

----------
details: in sec-butanol, 313.15 K
attribute_measured: solubility (mole fraction)
Reply with just the number.

[in] Kindly indicate its recorded solubility (mole fraction). Item: NC(=O)CC[C@H](N)C(=O)O
[out] 0.00042

----------
conditions: in ethanol, 323.15 K
attribute_measured: solubility (mole fraction)
Lab note: jot the number down without any unit.

[in] Please report solubility (mole fraction) for the following molecule: NC(=O)CC[C@H](N)C(=O)O
[out] 0.000584

----------
settings: in 2-butanone, 298.15 K
attribute_measured: solubility (mole fraction)
I only need the number, thanks.

[in] Answer with the recorded solubility (mole fraction) of NC(=O)CC[C@H](N)C(=O)O only.
[out] 0.000237

----------
details: in water, 288.15 K
attribute_measured: solubility (mole fraction)
Write no unit; give the number alone.

[in] Report solubility (mole fraction) for NC(=O)CC[C@H](N)C(=O)O
[out] 0.00409
